These data points were gathered from patent US20170266289A1.

- assay.summary: Plasma PK and skin concentration after topical application of gel-cream to shaved backs of rats
- Assay type: in vivo
- experimental.parameters: rat, skin/plasma, topical, 177.8 mg, individual rats 4-6, Formulation B, 24 hr after dose; read-out: Skin/Plasma Ratio
- Protocol: In order to assess the effect of the permeation enhancer on API delivery to the skin (topical delivery) and to the plasma (systamic delivery) in vivo, 177.8 mg of the subject topical formulation (177.8 μL of the 1% Compound 1 gel-cream, or about 1.778 mg of Compound 1) was applied to the backs of rats on a 4 cm^2 area of shaved skin. Plasma PK data was obtained during a period of about 24 hours following the topical application. See results in FIG. 9A, and the tables below. […]
parameter.measured: Kp at 24 h
Provide a numeric answer; units are not to be included.

[ask] Need Kp at 24 h, item CC[C@@H]1CN(C(=O)NCC(F)(F)F)C[C@@H]1c1cnc2cnc3[nH]ccc3n12 [Compound 2]
[reply] 6080
